Provenance of the data: ChEMBL document CHEMBL1201862

system: SF-295; test: NCI tumour cell line growth inhibition, 48 h
Calls of active or inactive are those of the source. Cut-off read from the data, not from the text of the source: active = GI50 up to about 1.1 µM and inactive = higher.
measurement-label: GI50

Fill in reported GI50 for this entry: N#CCCN(CCN(CCN(C(=O)Nc1ccccc1)c1ccccc1)C(=O)Nc1ccccc1)C(=O)Nc1ccccc1 > 100 µM (inactive)

Fill in reported GI50 for this entry: CC1(C)N=C(N)N=C(N)N1c1cccc(OCCOc2ccc([N+](=O)[O-])cc2)c1 > 100 µM (inactive)

Fill in reported GI50 for this entry: Cc1cn(C2CC(COCc3ccccc3)N(CCO[Si](C)(C)C(C)(C)C)O2)c(=O)[nH]c1=O (stereo not given) 16.4 µM (inactive)

Fill in reported GI50 for this entry: CC1=C2C(=O)c3ccccc3C(=O)[C@H]2C[C@@H](N2CCCCCC2=O)O1 18.8 µM (inactive)

Fill in reported GI50 for this entry: CC(=O)O[C@H]1[C@@H]2[C@@H]3[C@@H](C[C@H]1C)[C@@H](C)CO[C@@]1(C)CC/C=C(/C)C[C@@H]2O[C@@H]31 > 100 µM (inactive)

Fill in reported GI50 for this entry: CCOP(=O)(OCC)/C(C#N)=C/c1cccn1CC(C)C > 100 µM (inactive)

Fill in reported GI50 for this entry: CC(C)CSCC1OC(n2cnc3c(N)nccc32)C(O)C1O (stereo not given) > 100 µM (inactive)

Fill in reported GI50 for this entry: COC(=O)/C(=C/c1ccc(OC)cc1)C(C(=O)O)=C1CCCC1 > 100 µM (inactive)

Fill in reported GI50 for this entry: CC(C)=CC1CC(C)C2(CCC3(C)CC4C(C(=O)CC4(C)O)/C(C=O)=C\CC32)O1 (stereo not given) 0.191 µM (active)

Fill in reported GI50 for this entry: O=P(O)(O)c1ccc2c(c1)OCCOCCOCCOCCO2 > 100 µM (inactive)

Fill in reported GI50 for this entry: COc1ccc2c(c1)Oc1cc(O)ccc1[C@H]2c1ccccc1C(=O)NC(C)c1ccccc1 (stereo not given in full) 12.4 µM (inactive)

Fill in reported GI50 for this entry: CC1(C)OCC([C@H]2CC23SCCCS3)O1 (stereo not given in full) > 100 µM (inactive)

Fill in reported GI50 for this entry: N#CC(C#N)=C1NC(=O)C(c2ccccc2)C(=O)N1 (stereo not given) > 100 µM (inactive)

Fill in reported GI50 for this entry: COC(=O)[C@@H]1N2C(=S)N(c3ccccc3)C(=O)[C@H]2SC1(C)C > 100 µM (inactive)

Fill in reported GI50 for this entry: C[n+]1c(-c2ccc(/C=N\N3CCN(/N=C/c4ccc(-c5cn6ccsc6[n+]5C)cc4)CC3)cc2)cn2ccsc21 28.6 µM (inactive)

Fill in reported GI50 for this entry: O=S(=O)(O)n1ccnc1 > 100 µM (inactive)

Fill in reported GI50 for this entry: CC1CC(=O)Nc2ccc(/N=N/N(C)C)cc2N1C=O (stereo not given) > 100 µM (inactive)

Fill in reported GI50 for this entry: O=C(OC[C@H]1C[C@H]2C(=O)CCC[C@H]2O1)c1ccccc1 > 100 µM (inactive)

Fill in reported GI50 for this entry: CCOC(=O)c1nc2ccc(C(F)(F)F)cc2nc1NCc1cc(OC)c(OC)c(OC)c1 > 100 µM (inactive)

Fill in reported GI50 for this entry: Cc1ccc(-n2nncc2[Si](C)(C)C)s1 > 100 µM (inactive)

Fill in reported GI50 for this entry: C/C(=N\N=C(\N)OB(F)F)c1ccccn1 66.8 µM (inactive)

Fill in reported GI50 for this entry: Cn1ccnc1CCc1ccc(Cl)cc1Cl 79.1 µM (inactive)

Fill in reported GI50 for this entry: COc1ccc2nc(-c3ccc(O)cc3)ccc2c1 > 100 µM (inactive)

Fill in reported GI50 for this entry: O=c1c(-c2c(-c3ccccc3)oc3ccc(Cl)cc3c2=O)c(-c2ccccc2)oc2ccc(Cl)cc12 > 51.8 µM (inactive)

Fill in reported GI50 for this entry: N#C/C(=C\c1cccc(Cl)c1Cl)c1ccccc1 38.4 µM (inactive)

Fill in reported GI50 for this entry: CC(=O)Nc1ccc(-c2cc(C(=O)O)c3cc4ccccc4cc3n2)cc1 > 100 µM (inactive)

Fill in reported GI50 for this entry: Cn1c(=O)[nH]c2nccnc2c1=O > 10 µM (inactive)

Fill in reported GI50 for this entry: CNC(=O)NCCCCC(NC(C)=O)C(=O)NCc1ccccc1 (stereo not given) > 100 µM (inactive)

Fill in reported GI50 for this entry: COc1cc2c(cc1O)CCN[C@@]21CS[C@H]2c3c(OC(C)=O)c(C)c4c(c3C(COC1=O)N1C2C2c3c(cc(C)c(OC)c3O)CC([C@@H]1O)N2C)OCO4 (stereo not given in full) < 0.0001 µM (active)

Fill in reported GI50 for this entry: CCCCCCCCCCCCCCNCC(OCC)OCC 16.7 µM (inactive)

Fill in reported GI50 for this entry: C[n+]1c(-c2ccc(/C=N/NC(=O)C(=O)N/N=C/c3ccc(-c4cn5ccsc5[n+]4C)cc3)cc2)cn2ccsc21 53.5 µM (inactive)

Fill in reported GI50 for this entry: N/N=C1\C(=O)N(C2CCCCC2)C(=O)C1C(=O)NC1CCCCC1 (stereo not given) > 100 µM (inactive)

Fill in reported GI50 for this entry: CC(C)=CCc1[nH]c2ccccc2c1C1=C(O)C(=O)C(c2c(CC=C(C)C)[nH]c3ccccc23)=C(O)C1=O 1.03 µM (active)

Fill in reported GI50 for this entry: Cc1nnc([C@@]2(C)CC[C@H]3[C@@H](CCC4=CC(=O)CC[C@@]43C)[C@@H]2CC#N)o1 > 100 µM (inactive)

Fill in reported GI50 for this entry: Cc1cc2c(cc1Cl)SC(N/N=C(\N)c1ccc(Cl)cc1)=NS2(=O)=O 71.3 µM (inactive)

Fill in reported GI50 for this entry: [N-]=[N+]=Nc1cc(=O)[nH]nc1-c1ccccc1 > 100 µM (inactive)

Fill in reported GI50 for this entry: Cc1ccc(C2=C(Cl)C(=O)C(c3ccc(C)cc3)=C(Cl)C2=O)cc1 > 100 µM (inactive)

Fill in reported GI50 for this entry: CCOC(=O)C1=C(C)CC2C(=O)OC(=O)C2C1(C)C (stereo not given) > 100 µM (inactive)

Fill in reported GI50 for this entry: CCOC(=O)c1nc2c(Cl)c3ncccc3cc2[nH]c1=O 22.8 µM (inactive)

Fill in reported GI50 for this entry: Cc1cccc(NC(=O)/C(=N\N)C(c2cnc3ccc([N+](=O)[O-])cc3n2)[N+](=O)[O-])c1C (stereo not given) > 100 µM (inactive)
